- TEST DESCRIPTION: yeast display, Sf9 membrane polyspecificity reagent, FACS + sequencing; frameworks hold sequencing errors
READOUT TYPE: polyreactivity (PSR sort gate)

Study these solved cases before continuing.
[
  {
    "PRIMARY SEQUENCE": "QVQLVESGGGLVQAGGSLRLSCAASGLIIPRYAMGWYRQAPGKERELVAAITYTGGSTYYADSVKGRFTISRDNAKNTVYLQMNSLKPEDTSVYYCAVVVGYTDSPYSYDYWGQGTQVTVSS",
    "polyreactivity (PSR sort gate)": "low polyreactivity"
  },
  {
    "PRIMARY SEQUENCE": "QVQLVESGGGLVQAGGSLRLSCAASGGTFAVNVMGWYRQAPGKERELVAAITSNGGSTYYADSVKGRFTISRDNAKNTVYLQMNSLTPEATAVYYCAAEGSGWYTGHYYYWGQGTQVTVSS",
    "polyreactivity (PSR sort gate)": "low polyreactivity"
  },
  {
    "PRIMARY SEQUENCE": "QVQLVESGGGLVQAGGSLRLSCAASGLIFRYYSMAWYRQAPGKERELVAAISKSGDRTYYADSVKGRFTISRDNAKNTVYLEMNSLKPEATGVYYCAADSYPSPNFEDNYWGQGTQVTVSS",
    "polyreactivity (PSR sort gate)": "low polyreactivity"
  },
  {
    "PRIMARY SEQUENCE": "QVQLVESGGGLVQAGGSLRLSCAASGSTIRKNALGWSRQAPGKEREWVADIRRGGGTNYADSVKGRFTISRDNAKNTVYLQMNSLKPEDTAVYSCNTDILYYGRSKAPFYYCGQGTQVTVSS",
    "polyreactivity (PSR sort gate)": "high polyreactivity"
  }
]

Continue with the sequence presented below.
[Q] What does the data say about its polyreactivity (PSR sort gate)? Entry: QVQLVESGGGLVQERGSLRLSCADSGFIFWYYAMGWDRQAPGKERELVAAISWSGDSTYYADSVKGRFTISRDNANNTVYLQMKSLKPEYTAVYYCAVYEELDVFYNGYDYWGQGTQVTVSS
[A] high polyreactivity
